The origin of these recorded values is patent US20260092061A1.

biological target: BRD9 (Homo sapiens); test: Degradation of BRD9 (IF), immunofluorescence in MV4-11 cells, 24 hours (Assay Protocol 2); type: cell-based; parameters: A suspension of MV4-11 cells (ATCC CRL-9591) was prepared; host or cells: MV4-11; conditions: MV4-11, Assay protocol 2; BRD9 degradation; read-out: Dmax
measurement.label: Dmax

compound	target.desc	Dmax
COc1cc(-c2cn(C)c(=O)c(C)c2C)cc(OC)c1CN1CCN(Cc2cccc3c2CCN(C(=O)/C(C#N)=C/C2CCOCC2)C3C)CC1 (mixture of isomers)	BRD9 (Homo sapiens)	40 to 70%
COc1cc(-c2cn(C)c(=O)c(C)c2C)cc(OC)c1CN1CCN(CCc2cccc3c2CCN(C(=O)/C(C#N)=C/C(C)(C)C)C3C)C2(CC2)C1 (mixture of isomers)	BRD9 (Homo sapiens)	40 to 70%
COc1cc(-c2cn(C)c(=O)c(C)c2C)cc(OC)c1CN1CCN(C(=O)c2cccc(C3CCCN3C(=O)/C(C#N)=C/C(C)(C)C)c2)CC1 (mixture of isomers)	BRD9 (Homo sapiens)	> 75%
COc1cc(-c2cn(C)c(=O)c(C)c2C)cc(OC)c1CN1CCN(Cc2cccc3c2CCN(C(=O)C(C#N)=CC24CC(OC)(C2)C4)C3C)C2(CC2)C1 (mixture of isomers)	BRD9 (Homo sapiens)	> 75%

Please look at the following compound next.
Form field: reported Dmax of COc1cc(-c2cn(C)c(=O)c(C)c2C)cc(OC)c1CN1CCN(Cc2cccc3c2CCN(C(=O)/C(C#N)=C/C(C)(C)C)[C@@H]3C)[C@@H](C)C1 (single isomer, unassigned)
> 75%

----------
Biological target: BRD9 (Homo sapiens)
Sequence (Q9H8M2 1-597): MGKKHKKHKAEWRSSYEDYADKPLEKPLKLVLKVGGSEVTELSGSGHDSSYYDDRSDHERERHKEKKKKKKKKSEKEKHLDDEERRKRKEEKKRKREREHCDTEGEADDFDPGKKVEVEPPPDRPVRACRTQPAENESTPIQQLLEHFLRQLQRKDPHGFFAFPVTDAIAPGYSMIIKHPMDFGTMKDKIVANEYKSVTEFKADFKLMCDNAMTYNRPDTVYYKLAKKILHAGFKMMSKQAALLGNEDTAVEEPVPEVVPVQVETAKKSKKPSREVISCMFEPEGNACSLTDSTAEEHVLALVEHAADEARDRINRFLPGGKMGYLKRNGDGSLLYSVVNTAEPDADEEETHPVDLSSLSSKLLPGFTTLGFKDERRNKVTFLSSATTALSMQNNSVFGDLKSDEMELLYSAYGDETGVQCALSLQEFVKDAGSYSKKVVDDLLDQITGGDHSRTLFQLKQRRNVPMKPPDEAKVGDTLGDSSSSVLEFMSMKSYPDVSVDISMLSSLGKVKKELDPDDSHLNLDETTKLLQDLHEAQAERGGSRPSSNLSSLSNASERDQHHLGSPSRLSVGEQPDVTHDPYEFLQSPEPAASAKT
Experiment: Degradation of BRD9 (IF), immunofluorescence in MV4-11 cells, 24 hours (Assay Protocol 2)
Format: cell-based
Set-up: A suspension of MV4-11 cells (ATCC CRL-9591) was prepared; host or cells: MV4-11
Details: Assay protocol 2; BRD9 degradation; read-out: DC50
DC50 listing for selected compounds.

Below: 4 compounds and their reported DC50.
compound	target.desc	DC50
COc1cc(-c2cn(C)c(=O)c(C)c2C)cc(OC)c1CN1CC(N(C)Cc2ccc3c(c2)[C@H](C)N(C(=O)/C(C#N)=C/C(C)(C)C)CC3)C1 (single isomer, unassigned)	BRD9 (Homo sapiens)	25 to 1000 nM
COc1cc(-c2cn(C)c(=O)c3[nH]ncc23)cc(OC)c1CN1CCN(Cc2cccc3c2CCN(C(=O)/C(C#N)=C/C(C)(C)C)C3C)CC12CC2 (mixture of isomers)	BRD9 (Homo sapiens)	< 1.25 nM
CCCC(c1ccccc1CCC(=O)N1CCN(Cc2c(OC)cc(-c3cn(C)c(=O)c(C)c3C)cc2OC)CC1)N(C)C(=O)/C(C#N)=C/c1nccs1 (mixture of isomers)	BRD9 (Homo sapiens)	< 1.25 nM
COc1cc(-c2cn(C)c(=O)c(C)c2C)cc(OC)c1CN1C[C@@H](C)N(Cc2cccc3c2CCN(C(=O)/C(C#N)=C/C(C)(C)C)C3C)C[C@@H]1C (mixture of isomers)	BRD9 (Homo sapiens)	10 to 25 nM

Moving on to the next compound.
Suppose we examine the compound COc1cc(-c2cn(C)c(=O)c(C)c2C)cc(OC)c1CN1CC2CCC1CN2Cc1cccc2c1CCN(C(=O)/C(C#N)=C/C(C)(C)C)C2C (mixture of isomers) ; what DC50 value has been reported?
1.25 to 10 nM

----------
biological target: BRD9 (Homo sapiens); experiment: Degradation of BRD9 (IF), immunofluorescence in MV4-11 cells, 24 hours (Assay Protocol 2); assay type: cell-based; set-up: A suspension of MV4-11 cells (ATCC CRL-9591) was prepared; host or cells: MV4-11; conditions: Assay protocol 2; BRD9 degradation; read-out: DC50
measurement.label: DC50

Completed entries (count: 2):
compound	measurement.label	observed.result
COc1cc(-c2cn(C)c(=O)c(C)c2C)ccc1OC1CCN(Cc2cccc3c2CCN(C(=O)/C(C#N)=C/C(C)(C)C)C3C)C2(CC2)C1 (mixture of isomers)	DC50	25 to 1000 nM
COc1cc(-c2cn(C)c(=O)c(C)c2C)cc(OC)c1CN1CCC2(CC1)CCN(c1ccc3c(c1)[C@H](C)N(C(=O)/C(C#N)=C/C(C)(C)C)CC3)C2 (single isomer, unassigned)	DC50	1.25 to 10 nM

Consider the compound COc1ccc(/C=C(\C#N)C(=O)N2CCc3c(CN4CCN(Cc5c(OC)cc(-c6cn(C)c(=O)c(C)c6C)cc5OC)CC4)cccc3C2C)cn1 (mixture of isomers) and give its measured DC50.
1.25 to 10 nM

Also COc1cc(-c2cn(C)c(=O)c(C)c2C)cc(OC)c1CN1CCN(Cc2ccc3c(c2)[C@@H](C)N(C(=O)/C(C#N)=C/C(C)(C)C)CC3)C2(CC2)C1 (single isomer, unassigned) , if possible.
< 1.25 nM

----------
DC50 listing for selected compounds.
Molecular target: BRD9 (Homo sapiens)
Sequence (Q9H8M2 1-597): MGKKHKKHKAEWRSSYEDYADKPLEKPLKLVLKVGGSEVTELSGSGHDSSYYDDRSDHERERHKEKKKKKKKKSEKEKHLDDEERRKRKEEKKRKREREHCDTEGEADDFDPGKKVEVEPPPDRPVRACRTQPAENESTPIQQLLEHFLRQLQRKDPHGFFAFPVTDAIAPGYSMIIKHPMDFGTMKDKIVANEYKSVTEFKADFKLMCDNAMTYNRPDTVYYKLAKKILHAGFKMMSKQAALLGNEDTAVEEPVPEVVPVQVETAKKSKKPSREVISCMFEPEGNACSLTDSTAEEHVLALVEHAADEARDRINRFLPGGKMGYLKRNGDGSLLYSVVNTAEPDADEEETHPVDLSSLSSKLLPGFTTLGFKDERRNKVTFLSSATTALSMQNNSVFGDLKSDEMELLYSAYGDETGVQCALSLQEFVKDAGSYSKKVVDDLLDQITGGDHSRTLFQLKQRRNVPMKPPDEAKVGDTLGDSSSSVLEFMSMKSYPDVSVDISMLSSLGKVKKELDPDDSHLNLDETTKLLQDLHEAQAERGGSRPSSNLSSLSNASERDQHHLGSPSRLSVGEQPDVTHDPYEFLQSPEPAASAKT
Test: BRD9 degradation, HiBiT-BRD9 KI HEK293 (LgBiT) cells, NanoGlo Lytic Endpoint assay (Assay Protocol 1)
Format: cell-based
Conditions: Assay protocol 1; BRD9 degradation; read-out: DC50

Sample answers from the record:
> print(dat)
                                   compound  measurement.label  observed.result
1  COc1cc(-c2cn(C)c(=O)c(C)c2C)cc(OC)c1CN1CCN(Cc2cccc3c2CCN(C(=O)/C(C#N)=C/C2CC(F)(F)C2)C3C)C2(CC2)C1 (mixture of isomers)               DC50    1.25 to 10 nM
2  COc1cc(-c2cn(C)c(=O)c(C)c2C)cc(OC)c1CN1CCN(Cc2cccc(C3CCCN3C(=O)/C(C#N)=C/c3cccc(C(F)(F)F)n3)c2)CC1 (centres unmarked)               DC50    1.25 to 10 nM
3  COc1cc(-c2cn(C)c(=O)c(C)c2C)cc(OC)c1CN1CCN(Cc2cccc3c2CCN(C(=O)/C(C#N)=C/C2(C(F)(F)F)CCC2)C3C)CC1 (mixture of isomers)               DC50    1.25 to 10 nM
4  COc1cc(-c2cn(C)c(=O)c(C)c2C)cc(OC)c1CN(C)C(=O)c1cccc2c1CCN(C(=O)/C(C#N)=C/c1cccc(Br)n1)C2C (mixture of isomers)               DC50        < 1.25 nM
5  COc1cc(-c2cn(C)c(=O)c(C)c2C)cc(OC)c1CN1CCC(Oc2cccc(C3CCCN3C(=O)/C(C#N)=C/C(C)(C)C)c2)C1 (mixture of isomers)               DC50        < 1.25 nM

Field request: DC50 | item: COc1cc(-c2cn(C)c(=O)c(C)c2C)ccc1OC1CCN(Cc2cccc3c2CCN(C(=O)/C(C#N)=C/C(C)(C)C)C3C)CC1 (mixture of isomers)
1.25 to 10 nM

Item: COc1cc(-c2cn(C)c(=O)c(C)c2C)cc(OC)c1CN(C)Cc1ccc2c(c1)C(C)N(C(=O)/C(C#N)=C/c1cccc(Br)n1)CC2 (mixture of isomers)
1.25 to 10 nM

Another compound: COc1cc(-c2cn(C)c(=O)c(C)c2C)cc(OC)c1CN1CCN(c2ccc(C3CCCN3C(=O)/C(C#N)=C/C(C)(C)C)cc2)CC1 (mixture of isomers)
10 to 25 nM
